Target: T1, Soluble CDCP1 extracellular domain (CDCP1-ECD) (SEQ ID NO:30) fused to Streptavidin Binding Protein (SBP) (human, UniProt Q9H5V8 30-663)
T1 construct: also called SBP-CDCP1-ECD
T1 sequence: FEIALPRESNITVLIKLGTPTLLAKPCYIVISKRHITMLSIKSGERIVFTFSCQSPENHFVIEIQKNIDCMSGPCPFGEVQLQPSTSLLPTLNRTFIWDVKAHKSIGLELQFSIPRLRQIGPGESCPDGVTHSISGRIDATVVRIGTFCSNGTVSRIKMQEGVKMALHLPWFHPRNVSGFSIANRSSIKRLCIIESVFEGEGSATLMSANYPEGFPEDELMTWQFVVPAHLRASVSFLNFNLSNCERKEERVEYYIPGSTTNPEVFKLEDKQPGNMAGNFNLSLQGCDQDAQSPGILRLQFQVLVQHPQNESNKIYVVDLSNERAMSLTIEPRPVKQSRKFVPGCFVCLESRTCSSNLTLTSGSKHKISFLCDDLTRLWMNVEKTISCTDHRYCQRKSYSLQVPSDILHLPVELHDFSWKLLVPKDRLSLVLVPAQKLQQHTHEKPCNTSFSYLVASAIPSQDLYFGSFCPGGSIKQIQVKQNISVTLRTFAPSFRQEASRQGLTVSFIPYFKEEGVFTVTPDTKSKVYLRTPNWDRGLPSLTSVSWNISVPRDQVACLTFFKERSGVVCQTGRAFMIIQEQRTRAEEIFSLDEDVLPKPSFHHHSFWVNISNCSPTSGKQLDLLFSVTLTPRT
Assay: ELISA on captured SBP-CDCP1-ECD, ratio relative to chimeric CUB4 (chHC4)
The entries below come with measured relative binding ratio values attached.
readout label: relative binding ratio

binder="hHC4-I / hLC4-e (antibody, V domains shown) VH: EVQLLESGGGLVQPGGSLRLSCAASGFTFNSYAMSWVRQAPGKGLEWVSAISSGGSYTYYADSVKGRFTISRDNSKNTLYLQMNSLRAEDTAVYYCAKHPDYDGVWFAYWGQGTLVTVSS VL: DIQMTQSPSSLSASVGDRVTITCSVSSSVFYVHWYQQKPGKAPKLLIYDTSKLASGVPSRFSGSGSGTDFTFTISSLQPEDIATYYCQQWNSNPPTFGGGTKVEIK" numeric_readout=0.07
binder="hHC4-a / hLC4-f (antibody, V domains shown) VH: EVQLVESGGGLVKPGGSLRLSCAASGFTFNSYGMSWVRQAPGKGLEWVSTISSGGSYTYYPDSVKGRFTISRDNAKNSLYLQMNSLRAEDTAVYYCARHPDYDGVWFAYWGQGTLVTVSS VL: DIQMTQSPSSLSASVGDRVTITCSVSSSVFYVHWYQQKPGKAPKLLIYDTSKLASGVPSRFSGSGSGTDYTFTISSLQPEDIATYYCQQWNSNPPTFGGGTKVEIK" numeric_readout=0.5
